Documented log10(Kd) across a set of binders
# System Name: basic fibroblast growth factor (bFGF) (UniProt P09038 P09038:135-288)
# Sequence (P09038 135-288, one chain of several): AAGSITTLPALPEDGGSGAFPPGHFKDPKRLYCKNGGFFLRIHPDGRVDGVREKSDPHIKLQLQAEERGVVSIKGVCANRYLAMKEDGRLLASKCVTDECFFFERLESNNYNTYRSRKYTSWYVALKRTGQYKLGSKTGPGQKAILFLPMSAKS
# Assay Notes: filter; PBS
# Test Settings: tags: Bachem California, 18 kDa, 154 aa; 125I-labeled for receptor assays; label: 32P
Heads up, the numbers here are log10 of Kd in nM units.

Binder	log10(Kd)
M17 (ssDNA) DNA: GGGAGGACGATGCGGGGGGCTTTGCAAAAATTGTTAAATCTACCCCAGACGACGACGGGGA	0.84

Task: Look up and state reported log10(Kd) for M235 (ssDNA) DNA: GGGAGGACGATGCGGGGCTCTGCAAAGGACACAGGTCCTACGCATCAGACGACGACGGGGA
Output: -0.70

Task: Look up and state reported log10(Kd) for m234 (ssDNA) DNA: GGGAGGACGATGCGGCCCGAGGAGCTTTAGCGCCACAGGTTTGTGCAGACGACGACGGGGA
Output: -0.15

Task: Look up and state reported log10(Kd) for m206 (ssDNA) DNA: GGGAGGACGATGCGGACCTGGTGGCTGTGCTTATGTCCCCCTCATCAGACGACGACGGGGA
Output: 0.26

Task: Look up and state reported log10(Kd) for M225 (ssDNA) DNA: GGGAGGACGATGCGGGGCTACGTACCGGGGCTTTGTAAAACCCCGCAGACGACGACGGGGA
Output: -1.00

Task: Look up and state reported log10(Kd) for m224 (ssDNA) DNA: GGGAGGACGATGCGGCACCGAGGAATAACTGACGCCAGGCTGGCGCAGACGACGACGGGGA
Output: 0.18

Task: Look up and state reported log10(Kd) for M19 (ssDNA) DNA: GGGAGGACGATGCGGGGCTATGTAAATTACTGCTGTACTACGCATCAGACGACGACGGGGA
Output: -0.52
